test system: S. aureus MSSA strains; test: Bioscreen-C dose response growth curve of MSSA over 24 hours; format: cell-based, Staphylococcus aureus; settings: HCl salts, doses from 100 μg downwards, 10 mM sodium bicarbonate buffer pH-7.4, OD 420-580 nm
# lowest dose at which no MSSA growth was observed (growth curve) per entry
Write down the numeric answer in µg and omit the unit.

Task item: Which lowest dose at which no MSSA growth was observed (growth curve) value is on record for Compound I: PNA-CPP conjugate: PNA cgt cat acg cgg tcc (SEQ ID NO: 51), AEEA linker, CPP BXRXRRXRRXRRXR; FIG. 1 (CGTCATACGCGGTCC; all peptide nucleic acid (PNA); cell-penetrating peptide attached via AEEA linker, further chemistry not fully specified) ?
Reply: 3.13
